Experiment: Test Example 8: Acute Toxicity Test to Mice
Conditions: mouse, in vivo, po; forced peroral administration, corn oil, 6-week mice, up to 14 days
Recorded Metric: LD50 at 336 h

> print(dat)
                                   compound  recorded.metric    measured.value
1  COc1ccc(C=CN2CCN(Cc3ccc(Cl)nc3)C2=N[N+](=O)[O-])cc1 [No. 10]    LD50 at 336 h      > 5000 mg/kg
2  C=CCN1CCN(Cc2ccc(Cl)nc2)C1=N[N+](=O)[O-] [Reference Chemical 1, reference compound]    LD50 at 336 h  100 to 200 mg/kg
3  CC(C)C=CN1CCN(Cc2ccc(Cl)nc2)C1=N[N+](=O)[O-] [No. 27]    LD50 at 336 h        1000 mg/kg

---

Attribute: Mortality (%)
System: Laodelphax striatellus Fallen - smaller brown planthopper
Experiment: Test Example 1: Effect on smaller brown planthopper, mortality
Type: in vivo
Conditions: 5 ppm, 48 hours, 25° C., ten female adults, rice seedlings
Description: Effect on Laodelphax sriatellus Fallen--smaller brown planthopper The emulsion prepared in Formulation Example 1 was diluted to a predetermined concentration and 2 ml of the diluted emulsion was applied over a bundle of several rice seedlings (about third leaf stage). After drying in air, the treated seedlings were covered with a metal gauze cylinder, in which ten female adults of the smaller brown planthopper were released, followed by placing in a temperature controlled room at 25° C. […]
Recorded Metric: Mortality (%)

> print(dat)
                                    molecule  measured.value
 1  CCCCC(=CN1CCN(Cc2ccc(Cl)nc2)C1=N[N+](=O)[O-])CC [No. 33]             100
 2  COCN1CCN(Cc2ccc(Cl)nc2)C1=N[N+](=O)[O-] [Reference Chemical (2), reference compound]              20
 3  O=[N+]([O-])N=C1N(C=Cc2ccc3c(c2)OCO3)CCN1Cc1ccc(Cl)nc1 [No. 11]             100
 4  O=[N+]([O-])N=C1N(CCc2ccc(Cl)cc2)CCN1Cc1ccc(Cl)nc1 [Reference Chemical (1), reference compound]              20
 5  O=[N+]([O-])N=C1N(C=Cc2ccccc2Cl)CCN1Cc1ccc(Cl)nc1 [No. 12]             100
 6  O=[N+]([O-])N=C1N(C=CCc2ccccc2)CCN1Cc1ccc(Cl)nc1 [No. 40]             100
 7  O=C(NC=CN1CCN(Cc2ccc(Cl)nc2)C1=N[N+](=O)[O-])c1ccccc1 [No. 41]             100
 8  C=CN1CCN(Cc2ccc(Cl)nc2)C1=N[N+](=O)[O-] [No. 1]             100
 9  CCSC=CN1CCN(Cc2ccc(Cl)nc2)C1=N[N+](=O)[O-] [No. 42]             100
10  O=[N+]([O-])N=C1N(C=Cc2ccc(Cl)cc2)CCN1Cc1ccc(Cl)nc1 [No. 14]             100

Taken from patent US5310920A.
